Assay: Cytotoxicity of the compounds alone against drug-resistant cancer cells
Details: human, MDA-435/LCC-MDR cells (drug-resistant cancer cells)
metric: IC50 at 72 h

molSmiles: COc1cc(C=CC(=O)c2c(OCC=C(C)C)ccc3c(=O)c4ccccc4oc23)cc(OC)c1OC
metric: IC50 at 72 h
observed: > 1000 nM

Kindly review the next molecule as well.
Respond only with IC50 at 72 h recorded for `COc1cc(C=CC(=O)c2c(OCC=C(C)C)ccc3c(=O)c(C)c(-c4ccccc4)oc23)cc(OC)c1OC` > 1000 nM

The reported measurements were obtained from patent US6620842B2.
